test system: Danio rerio larvae (5 dpf); assay: excitability to 1-s acoustic pulses, difference vs DMSO (percentage points (treated minus DMSO)); higher = more of the behaviour than the DMSO vehicle control; conditions: 10 µM; exposure time: 3 h pre-incubation + 3 h imaging
Where a name gives a salt, the structure may show the parent alone.
Recorded Endpoint: excitability to 1-s acoustic pulses

[[record]]
compound = "Clc1ccc2nsnc2c1NC1=NCCN1 [Tizanidine hydrochloride]"
system = "Danio rerio larvae (5 dpf)"
recorded_endpoint = "excitability to 1-s acoustic pulses"
assay_value = 3.69

[[record]]
compound = "CN1CCN2c3ncccc3Cc3ccccc3C2C1 (centres undefined)"
system = "Danio rerio larvae (5 dpf)"
recorded_endpoint = "excitability to 1-s acoustic pulses"
assay_value = 0.878

[[record]]
compound = "CN1CCN(CCCN2c3ccccc3Sc3ccc(Cl)cc32)CC1 [Prochlorperazine dimaleate]"
system = "Danio rerio larvae (5 dpf)"
recorded_endpoint = "excitability to 1-s acoustic pulses"
assay_value = 23.6

[[record]]
compound = "COc1c(C)c2c(c(O)c1C/C=C(\\C)CCC(=O)O)C(=O)OC2"
system = "Danio rerio larvae (5 dpf)"
recorded_endpoint = "excitability to 1-s acoustic pulses"
assay_value = 0.774

[[record]]
compound = "C/C(O)=C(\\C#N)C(=O)Nc1ccc(C(F)(F)F)cc1 [Teriflunomide]"
system = "Danio rerio larvae (5 dpf)"
recorded_endpoint = "excitability to 1-s acoustic pulses"
assay_value = 10.6

[[record]]
compound = "CCCCC(=O)N(Cc1ccc(-c2ccccc2-c2nnn[nH]2)cc1)[C@H](C(=O)O)C(C)C"
system = "Danio rerio larvae (5 dpf)"
recorded_endpoint = "excitability to 1-s acoustic pulses"
assay_value = -1.54

[[record]]
compound = "CC(C)(C(=O)c1cccnc1)c1cccnc1"
system = "Danio rerio larvae (5 dpf)"
recorded_endpoint = "excitability to 1-s acoustic pulses"
assay_value = 12.2

[[record]]
compound = "OC(CNCC(O)C1CCc2cc(F)ccc2O1)C1CCc2cc(F)ccc2O1 (centres undefined) [Nebivolol hydrochloride]"
system = "Danio rerio larvae (5 dpf)"
recorded_endpoint = "excitability to 1-s acoustic pulses"
assay_value = 15.9

[[record]]
compound = "Cc1cc(C2CCCCC2)n(O)c(=O)c1"
system = "Danio rerio larvae (5 dpf)"
recorded_endpoint = "excitability to 1-s acoustic pulses"
assay_value = 5.96


---

tested on: Danio rerio larvae (5 dpf); assay: excitability to 1-s acoustic pulses, difference vs DMSO (percentage points (treated minus DMSO)); higher = more of the behaviour than the DMSO vehicle control; settings: 10 µM; exposure time: 3 h pre-incubation + 3 h imaging
Counter-ions that a name gives are not always drawn.
# if value of excitability to 1-s acoustic pulses reaches 4, tag rule met; if it stays below, tag rule not met

[[record]]
compound = "CCC(C)(C)C(=O)O[C@H]1C[C@@H](C)C=C2C=C[C@H](C)[C@H](CC[C@@H]3C[C@@H](O)CC(=O)O3)[C@H]21"
group = "rule met"

[[record]]
compound = "N#C[C@@H]1C[C@@H]2C[C@@H]2N1C(=O)[C@@H](N)C12CC3CC(CC(O)(C3)C1)C2 [Saxagliptin hydrochloride]"
group = "rule not met"

[[record]]
compound = "CCN(Cc1ccncc1)C(=O)C(CO)c1ccccc1 (stereo unspecified) [Tropicamide]"
group = "rule not met"

[[record]]
compound = "Nc1cccc2c1CN(C1CCC(=O)NC1=O)C2=O (stereo unspecified) [Lenalidomide]"
group = "rule not met"

[[record]]
compound = "N#Cc1ccc(C(c2ccc(C#N)cc2)n2cncn2)cc1"
group = "rule not met"

[[record]]
compound = "CN(CCOc1ccc(NS(C)(=O)=O)cc1)CCc1ccc(NS(C)(=O)=O)cc1 [Dofetilide]"
group = "rule met"


---

test system: Danio rerio larvae (5 dpf); test: startle response to 20-s acoustic pulses, difference vs DMSO (percentage points (treated minus DMSO)); higher = more of the behaviour than the DMSO vehicle control; settings: 10 µM; exposure time: 3 h pre-incubation + 3 h imaging
Counter-ions that a name gives are not always drawn.
Recorded Endpoint: startle response to 20-s acoustic pulses

[[record]]
compound = "Cc1nc(Nc2ncc(C(=O)Nc3c(C)cccc3Cl)s2)cc(N2CCN(CCO)CC2)n1"
system = "Danio rerio larvae (5 dpf)"
assay_value = 0.79

[[record]]
compound = "CO[C@H]1/C=C/O[C@@]2(C)Oc3c(C)c(O)c4c(O)c(c5c(nc6cc(C)ccn65)c4c3C2=O)NC(=O)/C(C)=C\\C=C\\[C@H](C)[C@H](O)[C@@H](C)[C@@H](O)[C@@H](C)[C@H](OC(C)=O)[C@@H]1C"
system = "Danio rerio larvae (5 dpf)"
assay_value = 2.34

[[record]]
compound = "Cc1ccsc1C(=CCCN1CCC[C@@H](C(=O)O)C1)c1sccc1C [Tiagabine hydrochloride]"
system = "Danio rerio larvae (5 dpf)"
assay_value = 5.98

[[record]]
compound = "Nc1cc(N2CCCCC2)nc(N)[n+]1[O-]"
system = "Danio rerio larvae (5 dpf)"
assay_value = -2.65

[[record]]
compound = "COc1cc(N)c(Cl)cc1C(=O)NC1CCN(CCCOc2ccc(F)cc2)CC1OC (configuration not stated) [Cisapride]"
system = "Danio rerio larvae (5 dpf)"
assay_value = -0.377

[[record]]
compound = "CN(C)CC/C=C1/c2ccccc2COc2ccc(CC(=O)O)cc21 [Olopatadine hydrochloride]"
system = "Danio rerio larvae (5 dpf)"
assay_value = 0.514

[[record]]
compound = "COc1cc2ncnc(Nc3ccc(F)c(Cl)c3)c2cc1OCCCN1CCOCC1"
system = "Danio rerio larvae (5 dpf)"
assay_value = -2.19


---

tested on: Danio rerio larvae (5 dpf); test: optomotor response to green moving lines, difference vs DMSO (percentage points (treated minus DMSO)); higher = more of the behaviour than the DMSO vehicle control; conditions: 10 µM; exposure time: 3 h pre-incubation + 3 h imaging
Counter-ions that a name gives are not always drawn.
# key: entry, value: optomotor response to green moving lines
Recorded Endpoint: optomotor response to green moving lines

[[record]]
molecule = "CN1CC2c3ccccc3Oc3ccc(Cl)cc3C2C1 (stereo not drawn) [Asenapine maleate]"
system = "Danio rerio larvae (5 dpf)"
recorded_endpoint = "optomotor response to green moving lines"
assay_value = -9.85

[[record]]
molecule = "CCCCCCCCc1ccc(CCC(N)(CO)CO)cc1"
system = "Danio rerio larvae (5 dpf)"
recorded_endpoint = "optomotor response to green moving lines"
assay_value = -1.15

[[record]]
molecule = "C[C@H]1C[C@@H]2[C@H]([C@@H](O)C[C@@]3(C)[C@H]2CC[C@]3(O)C(=O)CO)[C@@]2(C)C=CC(=O)C=C12"
system = "Danio rerio larvae (5 dpf)"
recorded_endpoint = "optomotor response to green moving lines"
assay_value = 5.3

[[record]]
molecule = "Nc1nc(F)nc2c1ncn2[C@@H]1O[C@H](CO)[C@@H](O)[C@@H]1O"
system = "Danio rerio larvae (5 dpf)"
recorded_endpoint = "optomotor response to green moving lines"
assay_value = 1.3

[[record]]
molecule = "OC(CNCC(O)C1CCc2cc(F)ccc2O1)C1CCc2cc(F)ccc2O1 (stereo not drawn) [Nebivolol hydrochloride]"
system = "Danio rerio larvae (5 dpf)"
recorded_endpoint = "optomotor response to green moving lines"
assay_value = -4.67

[[record]]
molecule = "CCCCc1nc(Cl)c(CO)n1Cc1ccc(-c2ccccc2-c2nnn[nH]2)cc1"
system = "Danio rerio larvae (5 dpf)"
recorded_endpoint = "optomotor response to green moving lines"
assay_value = -0.568

[[record]]
molecule = "CS(=O)(=O)CCNCc1ccc(-c2ccc3ncnc(Nc4ccc(OCc5cccc(F)c5)c(Cl)c4)c3c2)o1"
system = "Danio rerio larvae (5 dpf)"
recorded_endpoint = "optomotor response to green moving lines"
assay_value = 0.954

[[record]]
molecule = "OCc1cc(C(O)CNCCCCCCOCCCCc2ccccc2)ccc1O (stereo not drawn) [Salmeterol xinafoate]"
system = "Danio rerio larvae (5 dpf)"
recorded_endpoint = "optomotor response to green moving lines"
assay_value = -6.89


---

tested on: Danio rerio larvae (5 dpf); experiment: excitability to 1-s acoustic pulses, difference vs DMSO (percentage points (treated minus DMSO)); higher = more of the behaviour than the DMSO vehicle control; conditions: 10 µM; exposure time: 3 h pre-incubation + 3 h imaging
Counter-ions that a name gives are not always drawn.
Listed compounds paired with reported excitability to 1-s acoustic pulses
Recorded Endpoint: excitability to 1-s acoustic pulses

[[record]]
compound = "CCOC(=O)C1=C(COCCN)NC(C)=C(C(=O)OC)C1c1ccccc1Cl (centres undefined) [Amlodipine besylate]"
assay_value = -1.57

[[record]]
compound = "CCc1ccc(CCOc2ccc(CC3SC(=O)NC3=O)cc2)nc1 (centres undefined) [Pioglitazone hydrochloride]"
assay_value = 6.94

[[record]]
compound = "O=C1CCc2ccc(OCCCCN3CCN(c4cccc(Cl)c4Cl)CC3)cc2N1"
assay_value = 16.5

[[record]]
compound = "Cc1cccc(CN2CCN(C(c3ccccc3)c3ccc(Cl)cc3)CC2)c1 (centres undefined) [Meclizine dihydrochloride]"
assay_value = 9.5

[[record]]
compound = "COc1cc(Nc2c(C#N)cnc3cc(OCCCN4CCN(C)CC4)c(OC)cc23)c(Cl)cc1Cl"
assay_value = 6.48

[[record]]
compound = "CN1CC[C@@H](NC(=O)Nc2ccc(C#N)cc2)C[C@@H]1c1nc2ccccc2[nH]1"
assay_value = 7.99

[[record]]
compound = "CC[C@H]1OC(=O)[C@H](C)[C@@H](O[C@H]2C[C@@](C)(OC)[C@@H](O)[C@H](C)O2)[C@H](C)[C@@H](O[C@@H]2O[C@H](C)C[C@H](N(C)C)[C@H]2O)[C@](C)(O)C[C@@H](C)CN(C)[C@H](C)[C@@H](O)[C@]1(C)O"
assay_value = 13

[[record]]
compound = "CC(=O)S[C@@H]1CC2=CC(=O)CC[C@]2(C)[C@H]2CC[C@@]3(C)[C@@H](CC[C@@]34CCC(=O)O4)[C@H]12"
assay_value = 1.36

[[record]]
compound = "N[C@@H]1[C@H]2CN(c3nc4c(cc3F)c(=O)c(C(=O)O)cn4-c3ccc(F)cc3F)C[C@@H]12 [Trovafloxacin mesylate]"
assay_value = 11.3

[[record]]
compound = "CC(C)CN(C[C@@H](O)[C@H](Cc1ccccc1)NC(=O)O[C@H]1CO[C@H]2OCC[C@H]21)S(=O)(=O)c1ccc(N)cc1"
assay_value = -1.74

[[record]]
compound = "COc1cc2nc(N3CCN(C(=O)C4COc5ccccc5O4)CC3)nc(N)c2cc1OC (centres undefined) [Doxazosin mesylate]"
assay_value = 20.8

[[record]]
compound = "CC1CNc2c(cccc2S(=O)(=O)N[C@@H](CCCNC(=N)N)C(=O)N2CC[C@@H](C)C[C@@H]2C(=O)O)C1 (some centres undefined)"
assay_value = 0.477

[[record]]
compound = "CCOc1nc2cccc(C(=O)O)c2n1Cc1ccc(-c2ccccc2-c2nnn[nH]2)cc1"
assay_value = -3.51

[[record]]
compound = "O=C(c1ccc(OCCN2CCCCC2)cc1)c1c(-c2ccc(O)cc2)sc2cc(O)ccc12 [Raloxifene hydrochloride]"
assay_value = 9.93

